Measured reverse-splicing fitness, listed per entry.
B1: Azoarcus group I ribozyme (parent)
chain: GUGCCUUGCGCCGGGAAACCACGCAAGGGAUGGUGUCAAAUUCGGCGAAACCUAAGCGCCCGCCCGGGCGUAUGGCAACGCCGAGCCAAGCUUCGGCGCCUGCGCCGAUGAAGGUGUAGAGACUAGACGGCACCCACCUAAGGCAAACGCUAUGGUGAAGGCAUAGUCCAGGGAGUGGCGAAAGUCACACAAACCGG

Variants of: B1
experiment: reverse-splicing fitness (ratio to wild type); higher = more active; in vitro selection; Mg2+ level not given
assayMetric: reverse-splicing fitness

>>> measuredvalue("C82A A111C A120G A145C C150G")
0.00724
>>> measuredvalue("A120U A145U C150U C169A")
0.0103
>>> measuredvalue("C169G U176C")
0.137
>>> measuredvalue("C82A A111U A120U A145C C150U U176C")
0.00533
>>> measuredvalue("C82A A111G A120U A145C C150A C169A U176C")
0.0024
>>> measuredvalue("C82A A120C A145U C150U C169U U176C")
0.0137
>>> measuredvalue("C82A A120C C150A C169A U176G")
0.00801
>>> measuredvalue("C82G A111U A120G A145G U176G")
0.0077
>>> measuredvalue("C82A A120G A145U C150U U176A")
0.0108
>>> measuredvalue("C82A A111G A120U C150G U176A")
0.00446
>>> measuredvalue("C82G A111U A120U C150A U176C")
0.00858
>>> measuredvalue("A111C A120C A145G C169G U176G")
0.00588
>>> measuredvalue("C82U A120G C150A U176C")
0.0166
>>> measuredvalue("A111G A145C C150G C169G U176A")
0.00824
>>> measuredvalue("C82A A111C A145U C169U")
0.0124
>>> measuredvalue("C82A A111U A120U A145U U176G")
0.00335
>>> measuredvalue("C82G A111U A120C A145G C150U C169G U176A")
0.0154
>>> measuredvalue("A120G A145G C150U C169U")
0.37
>>> measuredvalue("C82G A111G A120U A145G C150A C169G U176G")
0.00219
>>> measuredvalue("C82A A111G A120U A145G C150U C169G U176G")
0.00249
>>> measuredvalue("C82G A111U A120U U176A")
0.0109
>>> measuredvalue("C82A A111C A120U C150A C169G U176A")
0.00598

All values here come from the RNAGym collection of RNA variant scans (doi:10.1093/molbev/msab373).
